Hi there, I'd appreciate the recorded composite z-score for every entry that follows.
# assay remarks: binders of probe aFSTL3 on microarray, primary screen, stem cell growth factor project, biochemical, small-molecule microarray, fluorescence 635/667 (AID 1064);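 note: measures binding of the biotinylated anti-FSTL3 antibody to printed compounds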
# condition info: higher = more signal
When you answer, write just the number.

Req: Name the recorded composite z-score of the item "[N-]=[N+]=NCc1ccccc1C[C@]1(C(=O)NCc2ccccc2)N=C(c2ccc(OCCCO)cc2)O[C@H]1c1ccccc1N=[N+]=[N-]" in your answer.
Resp: 0.741

Req: Name the recorded composite z-score of the item "CO[C@H]1COC(=O)CC=C[C@H](C)[C@@H](NS(=O)(=O)c2ccc(C)cc2)COC(=O)CC=C[C@@H]1C" in your answer.
Resp: -0.599

Req: Name the recorded composite z-score of the item "COc1ccc(O[C@@H]2[C@H](O)CO[C@H]2C=CC#Cc2ccccc2)cc1" in your answer.
Resp: -0.389

Req: Name the recorded composite z-score of the item CN1C(=O)C2C=CC(C(O)c3ccc(Br)cc3)N(N(c3ccccc3)c3ccccc3)C2C1=O (stereo not drawn) in your answer.
Resp: 0.519

Req: Name the recorded composite z-score of the item "CCN1C(=O)[C@H]2[C@H]3[C@H](O)[C@H](O)CC(=NOCc4ccccc4)[C@H]3CC[C@H]2C1=O" in your answer.
Resp: -0.5

Req: Name the recorded composite z-score of the item "CC(C)(C)N1C(=O)[C@H]2[C@H]3[C@H](O)[C@H](O)CC(=NOCc4ccccc4)[C@@H]3CC[C@H]2C1=O" in your answer.
Resp: -0.0757

Req: Name the recorded composite z-score of the item "C[N+](C)(C)CCCCCCNC(=O)[C@@H]1C[C@@H]2C(=O)N3CCC[C@H]3C(=O)N2[C@@H]1c1cccc(OCCO)c1" in your answer.
Resp: -0.0041

Req: Name the recorded composite z-score of the item "O=C1C[C@@H](O)[C@@H](O)[C@@H]2[C@@H]3C(=O)N(C4CCCCC4)C(=O)[C@@H]3CC[C@H]12" in your answer.
Resp: -0.472

---

# assay remarks: E. coli acrAB mutant growth effects, primary screen, E. coli filamentation inducers, strain DRC39, OD650, 48 h (AID 1179);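 note: screen aims at cell division blockers that make cells filament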
# condition info: E. coli DRC39 delta-acrAB growth, higher = more signal, called active from +8 up or from −8 down
// label = Fulfilled if z-score is not less than -0.1, otherwise Not fulfilled

Req: Please check the record "CCN1C(=O)[C@H]2[C@H]3[C@H](O)[C@H](O)CC(=NOCc4ccccc4)[C@H]3CC[C@H]2C1=O" and state if its z-score is at or above -0.1.
Resp: Fulfilled

Req: Please check the record "CC(C)NC(=O)[C@@H]1c2ccccc2C(=O)N(CC23CC4CC(CC(C4)C2)C3)[C@H]1c1ccc(CO)cc1" and state if its z-score is at or above -0.1.
Resp: Fulfilled

Req: Please check the record "CCOC(=O)C1=CC[C@H]2C(=O)N(CC)C(=O)[C@@H]12" and state if its z-score is at or above -0.1.
Resp: Not fulfilled

Req: Please check the record COc1cccc([C@H]2Oc3ccc(OC)cc3C(=NOC(C)CN3CCCc4nc(C)c(C)cc43)[C@@H]2O)c1 (stereo partly drawn) and state if its z-score is at or above -0.1.
Resp: Not fulfilled

Req: Please check the record "COc1ccc([Si](C)(C)[C@@H]2[C@@H](CC(=O)N3CCC[C@H]3CO)O[C@]3(C(=O)N(Cc4cccc(N5CCC5=O)c4)c4ccccc43)[C@H]2C)cc1" and state if its z-score is at or above -0.1.
Resp: Fulfilled

Req: Please check the record "CCCCc1nc2c(c3c1C[C@H](C)OC3)CN(CCC(C)C)CC2" and state if its z-score is at or above -0.1.
Resp: Not fulfilled

Req: Please check the record CN1C(=O)C2C=CC(C(O)c3ccc(I)cc3)N(NC(=O)OC(C)(C)C)C2C1=O (stereo not drawn) and state if its z-score is at or above -0.1.
Resp: Not fulfilled

Req: Please check the record "CCc1cc2c(nc1CC)CCN(CCC(C)=NOC[C@@H](O)COCc1ccco1)C2" and state if its z-score is at or above -0.1.
Resp: Fulfilled

---

# assay remarks: PSAC antagonists in infected red cells, primary screen, cell-based, P. falciparum Indochina, OD700, 18 h (AID 1157)
# condition info: P. falciparum Indochina infected erythrocytes, osmotic lysis OD700, 18 h; higher = more signal, called active from +8 up or from −8 down
Hi there, I'd appreciate the recorded z-score for every entry that follows.
When you answer, write just the number.

Req: Name the recorded z-score of the item "CN(C)CCCNC(=O)[C@@H]1c2ccccc2C(=O)N(Cc2ccccc2)[C@H]1c1ccc(CO)cc1" in your answer.
Resp: 0.33

Req: Name the recorded z-score of the item COC(=O)[C@H](C)NC(=O)CCC1CC(OC(=O)NCc2cccc3ccccc23)CC2(CCCC(COC(=O)NCCc3ccc(Cl)cc3)O2)O1 (stereo not given in full) in your answer.
Resp: -0.193

Req: Name the recorded z-score of the item "O=C1[C@H]2[C@H]3[C@H](O)[C@H](O)CC(=NOCc4ccccc4)[C@H]3CC[C@H]2C(=O)N1C[C@@H]1CCCO1" in your answer.
Resp: 0.479

Req: Name the recorded z-score of the item "COc1ccc(O[C@H]2C=C[C@@H](c3ccccc3)O[C@@H]2COC(=O)CCC(C)=NO[C@@H](C)c2cc(-c3c(C)cc(C)cc3C)no2)cc1" in your answer.
Resp: 0.245

Req: Name the recorded z-score of the item "COc1ccc(O[C@H]2C=C[C@@H](c3ccccc3)O[C@@H]2CON=C[C@@H](C)[C@H](OCc2ccccc2)C(C)C)cc1" in your answer.
Resp: 0.319

Req: Name the recorded z-score of the item "C=CCN1C(=O)[C@]2(O[C@H](CCn3cc(CCO)nn3)[C@@H]([Si](C)(C)c3ccc(OC)cc3)[C@@H]2C)c2cc(N3CCOC3=O)ccc21" in your answer.
Resp: 0.376

Req: Name the recorded z-score of the item "CCOC(=O)C[C@H]1[C@H](OC(=O)c2ccc(C(=O)c3ccccc3)cc2)[C@@H](NC(=O)c2ccc(-c3ccccc3)cc2)c2cc(OCCCO)ccc2N1C(=O)c1ccc2ccccc2n1" in your answer.
Resp: 0.407

Req: Name the recorded z-score of the item "O=C1[C@H]2[C@H]3[C@H](O)[C@H](O)CC(=NO[C@@H]4O[C@H](CO)[C@@H](O)[C@H](O)[C@H]4O)[C@@H]3CC[C@H]2C(=O)N1Cc1ccc2c(c1)OCO2" in your answer.
Resp: 0.404

Req: Name the recorded z-score of the item "C=COC[C@H]1CN2[C@@H](CC[C@@H](C)[C@@H]2c2ccc(Br)cc2)C(=O)O1" in your answer.
Resp: -1.99

Req: Name the recorded z-score of the item "CCCNC(=O)[C@@H]1c2ccccc2C(=O)N(c2ccc(C)cn2)[C@H]1c1ccc(CO)cc1" in your answer.
Resp: 0.0336

Req: Name the recorded z-score of the item "COCC(=C=CC[C@@H](O)c1ccccc1OCCO)CCO" in your answer.
Resp: 0.16

Req: Name the recorded z-score of the item "C#C[C@@H](CC)O[Si](C#Cc1ccc(Oc2ccccc2)cc1)(C(C)C)C(C)C" in your answer.
Resp: 0.335

Req: Name the recorded z-score of the item "CC(C)CON=C1C[C@@H](O)[C@@H](O)[C@@H]2[C@@H]3C(=O)N(Cc4ccccc4)C(=O)[C@@H]3CC[C@@H]12" in your answer.
Resp: -0.0378

Req: Name the recorded z-score of the item "C[C@H]1Cc2c(-c3ccccc3)nc3c(c2CO1)CN(CCOc1ccccc1)CC3" in your answer.
Resp: 0.0748

Req: Name the recorded z-score of the item "CO[C@H]1O[C@H](CO)[C@@H](OC(=O)Nc2ccc(C#N)cc2)[C@H](OC(=O)c2cc3ccccc3[nH]2)[C@H]1OC(=O)c1cc2ccccc2[nH]1" in your answer.
Resp: -0.418

Req: Name the recorded z-score of the item "CO[C@H]1COC(=O)[C@@H]2CCCN2C(=O)[C@@H](C)COC(=O)CC=C[C@@H]1C" in your answer.
Resp: 0.27

Req: Name the recorded z-score of the item "COC(=O)[C@H]1COC(c2ccc(OCCCO)cc2)=N1" in your answer.
Resp: 0.642

Req: Name the recorded z-score of the item "C=C(COC)/C(=C/C[C@H](OC(=O)c1ccncc1)c1ccc(CO)o1)c1cc(C(=O)OC)ccc1OC" in your answer.
Resp: 0.013

Req: Name the recorded z-score of the item "O=C1[C@H]2[C@H]3[C@H](O)[C@H](O)CC(=NOCc4ccccc4)[C@H]3CC[C@H]2C(=O)N1c1ccc(F)cc1F" in your answer.
Resp: -0.304

Req: Name the recorded z-score of the item CCN1C(=O)[C@H]2[C@H]3[C@H](O)[C@H](O)CC(=NOC(C)CN4CCCCc5nc(C)c(C)cc54)[C@@H]3CC[C@H]2C1=O (stereo not given in full) in your answer.
Resp: 0.317

Req: Name the recorded z-score of the item "C[C@@H]1C=CCC(=O)OC[C@H](C)C(=O)OC[C@H]2O[C@H]1C=C[C@H]2O" in your answer.
Resp: 0.254

Req: Name the recorded z-score of the item "COCCOC(=O)N1C(=O)[C@@]2(c3cc(C#Cc4ccc(OC)cc4)ccc31)[C@H](c1ccc(O)cc1)N1[C@H](c3ccccc3)[C@H](c3ccccc3)OC(=O)[C@H]1[C@@H]2C(N)=O" in your answer.
Resp: 0.954

Req: Name the recorded z-score of the item CN(C)c1ccc(C(O)C2C=CC3C(=O)N(c4ccccc4)C(=O)C3N2Nc2ccccc2F)cc1 (stereo not given) in your answer.
Resp: 0.586

Req: Name the recorded z-score of the item "CC(C)[C@@H](OCc1ccccc1)[C@H](C)C=NOC[C@@H](C)[C@H](OCc1ccccc1)C(C)C" in your answer.
Resp: -0.222

Req: Name the recorded z-score of the item C[C@@H]1CCC2C(=O)N(Cc3ccccc3)C[C@@H](O)CN2[C@H]1c1ccc(Br)cc1 (stereo not given in full) in your answer.
Resp: -0.567

Req: Name the recorded z-score of the item "COC(=O)CC=C[C@@H](C)[C@@H](C=NO[C@@H](C)c1cc(-c2c(C)cc(C)cc2C)no1)OC" in your answer.
Resp: -1.37

Req: Name the recorded z-score of the item "O=C1[C@H]2[C@H]3[C@H](O)[C@H](O)CC(=NO[C@@H]4O[C@H](CO)[C@@H](O)[C@H](O)[C@H]4O)[C@@H]3CC[C@H]2C(=O)N1c1ccc(F)cc1F" in your answer.
Resp: 0.205

Req: Name the recorded z-score of the item "C=CC[C@@H]1C=C[C@H](ON=Cc2ccc(C(=O)N3[C@H](c4ccc(C)cc4)[C@@H](C)CC[C@H]3C(=O)OC)cc2)[C@@H](CO)O1" in your answer.
Resp: 0.637

Req: Name the recorded z-score of the item N#Cc1ccc(NN2C(C(O)c3cccc4ccccc34)C=CC3C(=O)N(c4ccccc4)C(=O)C32)cc1 (stereo not given) in your answer.
Resp: 1.44

Req: Name the recorded z-score of the item "COC(=O)[C@@]1(Cc2ccc(F)cc2)[C@@H]2C(=CC(=O)[C@H]2CC(=O)C(=O)N(C)C)CN1C(=O)c1ccccc1" in your answer.
Resp: 1.45
